Origin of measurements: patent EP4741386A1

# measurement-target: Recombinant human His6-USP1/His6-UAF1 complex protein (Homo sapiens, UniProt O94782)
# Construct: His6
# Sequence (O94782 whole entry): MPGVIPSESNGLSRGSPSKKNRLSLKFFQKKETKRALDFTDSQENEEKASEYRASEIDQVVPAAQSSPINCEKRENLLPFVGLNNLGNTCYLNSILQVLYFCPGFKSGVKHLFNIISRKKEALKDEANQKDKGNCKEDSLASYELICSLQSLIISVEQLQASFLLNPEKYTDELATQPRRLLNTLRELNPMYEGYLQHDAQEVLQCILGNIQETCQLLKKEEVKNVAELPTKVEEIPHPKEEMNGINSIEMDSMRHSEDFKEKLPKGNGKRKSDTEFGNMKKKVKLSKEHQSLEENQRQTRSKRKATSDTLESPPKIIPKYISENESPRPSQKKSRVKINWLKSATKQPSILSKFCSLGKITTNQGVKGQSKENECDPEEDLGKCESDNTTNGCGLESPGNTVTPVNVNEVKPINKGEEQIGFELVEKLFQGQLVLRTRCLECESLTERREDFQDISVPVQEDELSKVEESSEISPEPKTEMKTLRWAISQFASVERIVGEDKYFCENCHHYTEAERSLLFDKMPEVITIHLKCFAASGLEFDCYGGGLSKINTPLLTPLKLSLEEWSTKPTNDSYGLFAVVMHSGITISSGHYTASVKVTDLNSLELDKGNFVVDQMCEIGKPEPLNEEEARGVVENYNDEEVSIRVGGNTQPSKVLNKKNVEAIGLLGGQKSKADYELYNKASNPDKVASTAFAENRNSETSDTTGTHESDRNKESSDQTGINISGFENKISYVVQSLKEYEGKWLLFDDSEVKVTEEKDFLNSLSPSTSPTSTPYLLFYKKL
# Sequence (Q8TAF3 whole entry partner): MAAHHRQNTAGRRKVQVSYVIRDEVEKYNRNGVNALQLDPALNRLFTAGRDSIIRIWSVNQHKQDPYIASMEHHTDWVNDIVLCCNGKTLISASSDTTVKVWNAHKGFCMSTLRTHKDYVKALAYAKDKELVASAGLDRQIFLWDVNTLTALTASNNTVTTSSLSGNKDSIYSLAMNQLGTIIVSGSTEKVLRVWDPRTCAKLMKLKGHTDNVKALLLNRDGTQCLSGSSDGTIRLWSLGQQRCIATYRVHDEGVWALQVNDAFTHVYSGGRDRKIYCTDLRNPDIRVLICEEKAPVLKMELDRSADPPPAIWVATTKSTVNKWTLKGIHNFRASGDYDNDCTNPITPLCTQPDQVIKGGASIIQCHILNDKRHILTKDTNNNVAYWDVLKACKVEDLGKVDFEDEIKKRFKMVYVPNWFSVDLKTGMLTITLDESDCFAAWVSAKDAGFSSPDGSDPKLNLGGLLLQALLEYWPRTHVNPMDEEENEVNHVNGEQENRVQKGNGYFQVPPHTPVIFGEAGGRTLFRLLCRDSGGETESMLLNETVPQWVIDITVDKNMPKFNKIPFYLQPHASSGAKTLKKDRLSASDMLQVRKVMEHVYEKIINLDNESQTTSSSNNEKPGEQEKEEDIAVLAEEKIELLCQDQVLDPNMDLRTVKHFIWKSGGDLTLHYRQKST
# assay-explanation: In vitro inhibitory activity against USP1 (Ubiquitin Rhodamine 110 fluorescence detection, 384-well plate)
# condition-details: Ub-Rho substrate, 1 hour pre-incubation, read after 30 minutes
Provide the recorded pIC50 for the entries that follow.
Answers are plain numbers, as −log10 of the molar value.

molecule	readout-number
CC(C)c1ccccc1-c1ncc(C(F)(F)F)c(NCC2CCN(c3nc(C(F)(F)F)cn3C)CC2)n1 [Example 25]	8.43
Cc1noc(C(C)C)c1-c1ncc(OC(F)F)c(NCc2ccc(-c3nc(C(F)(F)F)cn3C)cc2)n1	7.48
COc1cnc(-c2c(Cl)cnn2C(C)C)nc1N(C)CC12CCC(c3nc(C(F)(F)F)cn3C)(CC1)OC2 [Example 211]	8.21

Working through the 4 molecules below one at a time, give pIC50 for each.
1. COc1cnc(-c2ccccc2C(C)C)nc1N(C)CC1CCN(c2nc(C(F)(F)F)cn2C)CC1
2. COc1cnc(-c2c(OC)ncnc2C2CC2)nc1NCC12CCC(c3ccc(C(F)(F)F)cn3)(CC1)CC2
3. COc1cnc(-c2cccc3ccn(C)c23)nc1NCc1ccc(-c2nc(C(F)(F)F)cn2C)cc1
4. COc1cnn(C(C)C)c1-c1nc(NCc2ccc(-c3ccccn3)cc2)c2occc2n1

8.68
7.48
7.51
7.57

---

# measurement-target: Recombinant human His6-USP1/His6-UAF1 complex protein (Homo sapiens, UniProt O94782)
# Construct: His6
# assay-explanation: In vitro inhibitory activity against USP1 (Ubiquitin Rhodamine 110 fluorescence detection, 384-well plate)
# condition-details: Ub-Rho substrate, 1 hour pre-incubation, read after 30 minutes
pIC50: −log10 of the molar value.
Kindly return class 1 if reported pIC50 is no lower than 8; return class 0 if it is lower.

molecule	category-label
C#Cc1cnc(-c2ccccc2C(C)C)nc1NCc1ccc(-c2nc(C(F)(F)F)cn2C)cc1 [Example 85]	class 1
COc1ncnc(C2CC2)c1-c1ncc(OC(F)F)c(NCc2ccc(-c3nc(C(F)(F)F)cn3C)cc2)n1 [Example 134]	class 1
COC(=O)Cc1cnc(-c2ccccc2C(C)C)nc1NCc1ccc(-c2nc(C(F)(F)F)cn2C)cc1 [Example 91]	class 1
COc1ncnc(C2CC2)c1-c1ncc(OC(C)C)c(NCC2CCN(c3nc(C(F)(F)F)cn3C)CC2)n1 [Example 110]	class 0
COc1cnc(-c2c(OC)ncnc2C(F)(F)F)nc1NCC12CCC(c3nc(C(F)(F)F)cn3C(C)C)(CC1)OC2 [Example S15]	class 0
CC(C)c1ccccc1-c1nc(NCc2ccc(-c3nc(C(F)(F)F)cn3C)cc2)c2ncccc2n1 [Example 40]	class 1

Would you say CC(C)c1ccccc1-c1ncc(C(F)(F)F)c(NCc2ccc(-c3nc(C(F)(F)F)cn3C)cc2)n1 [Example 17] shows pIC50 at minimum 8?
class 1

Would you say COc1cnc(-c2ccccc2C2CC2)nc1NCc1ccc(-c2nc(C(F)(F)F)cn2C)cc1 [Example 169] shows pIC50 at minimum 8?
class 1

Would you say COc1cc(-c2nc(C(F)(F)F)cn2C)ccc1CNc1nc(-c2ccccc2C2CC2)nc2ccoc12 [Example 175] shows pIC50 at minimum 8?
class 1

Would you say COc1cnc(-c2ccccc2C(C)C)nc1NCc1ccc2c(c1)CN(C1CCC(=O)NC1=O)C2=O (stereo not drawn) [Example 41] shows pIC50 at minimum 8?
class 0

Would you say COc1cnc(-c2cccnc2C(C)C)nc1NCc1ccc(-n2nc(C(F)(F)F)cc2C)cc1 [Example 158] shows pIC50 at minimum 8?
class 1
